Attribution: PubChem BioAssay (NCATS)

experiment: qHTS of pediatric cancer cell lines to identify multiple opportunities for drug repurposing: Primary screen for Rh41 cells (AID 1347108); conditions: Rh41 rhabdomyosarcoma viability, CellTiter-Glo luminescence, 48 h; series mostly up to 46 µM; further: nearly all actives have a fitted effect of over 70% in size
Records with an inconclusive call do not appear. Active and inactive are the calls of the source. The call rests on the fitted dose curve; in most records, active means well fitted cell-killing curve with a large enough effect; inconclusive means small, poorly fitted or top-dose-only effect; inactive means no such curve, though single readings can be large or run the other way.
Output constraint: value belongs to 1 (active), 0 (inactive)

Record excerpt, results attached:
[[record]]
molecule = "CN1C[C@@H](NS(=O)(=O)N(C)C)C[C@@H]2c3cccc4c3c(cn4C)C[C@H]21"
discrete_label = 0

[[record]]
molecule = "CCN(CC)C(C)C(=O)c1ccccc1 (configuration not stated)"
discrete_label = 0

[[record]]
molecule = "CCOP(=S)(OCC)O/N=C(\\C#N)c1ccccc1"
discrete_label = 0

[[record]]
molecule = "Cc1nnc2n1-c1sc(CCC(=O)N3CCOCC3)cc1C(c1ccccc1Cl)=NC2"
discrete_label = 0

[[record]]
molecule = "Oc1ccc([C@H]2CNCc3c2ccc(O)c3O)cc1O"
discrete_label = 0

[[record]]
molecule = "CC[n+]1c(-c2ccccc2)c2cc(N)ccc2c2ccc(N)cc21"
discrete_label = 1

[[record]]
molecule = "CCN1CCCC1CNC(=O)C(O)(c1ccccc1)c1ccccc1 (configuration not stated)"
discrete_label = 0

[[record]]
molecule = "C=CC[C@]1(O)CC[C@H]2[C@@H]3CCC4=CC(=O)CCC4=C3C=C[C@@]21C"
discrete_label = 0


Problem: Given "C=CCN1CC[C@]23CCCC[C@H]2[C@H]1Cc1ccc(O)cc13" , state the outcome it received in this test.
Result: 0

Problem: Field: outcome | Entry: "CN(C)CCc1c[nH]c2ccccc12"
Result: 0

Problem: What call does the record list for COc1cc(N)c(Cl)cc1C(=O)NC1CN2CCC1CC2 (configuration not stated) ?
Result: 0

Problem: In this assay, the call recorded for COCC(=O)N(c1c(C)cccc1C)C(C)C(=O)OC (configuration not stated) was what?
Result: 0
